- method-summary: Half life in dog at 5 umol/kg, iv
- Type: ADME, organism-based, Canis lupus familiaris
- settings: in vivo
measured-parameter: half-life (h)
Could you give me the number in h? Just the number is fine.

Prompt: Look up half-life: CC(CCNC(=O)c1c(Cl)cncc1Cl)N1CCC(C(Oc2cccc(Cl)n2)c2ccc(C(F)(F)F)cc2)CC1 (mixture of isomers)
Completion: 7.7

----------
- method-summary: Cytotoxicity against human PBMC
- Assay type: cell-based
measured-parameter: CC50 (µM)
Give a bare numeral; the unit µM is implied.

Take a look at these entries with their results.
CC(CCNC(=O)c1c(Cl)cncc1Cl)N1CCC(C(Oc2cccc(F)c2)c2ccc(C(F)(F)F)cc2)CC1 (mixture of isomers); 5.4
Cc1ccc(OC(c2ccc(Br)cc2)C2CCN(C(C)CCNC(=O)c3c(Cl)cncc3Cl)CC2)nc1 (mixture of isomers); 32.2
CC(CCNC(=O)c1c(Cl)cncc1Cl)N1CCC(C(Oc2ccccc2Cl)c2ccc(C(F)(F)F)cc2)CC1 (mixture of isomers); 4.4
CC(CCNC(=O)c1c(Cl)cncc1Cl)N1CCC(C(Oc2ccncc2)c2ccc(Br)cc2)CC1 (mixture of isomers); 31.2
COC(=O)c1cccc(OC(c2ccc(C(F)(F)F)cc2)C2CCN(C(C)CCNC(=O)c3c(Cl)cncc3Cl)CC2)c1 (mixture of isomers); 15.2

Prompt: Fill blank: measured CC50 of the molecule CC(CCNC(=O)c1c(Cl)cncc1Cl)N1CCC(C(O)c2ccc(Br)cc2)CC1 (stereo not given) is ____.
Completion: 198

Prompt: Which CC50 is reported for this molecule? COC(=O)c1cccc(OC(c2ccc(C(F)(F)F)cc2)C2CCN(C(C)CCNC(=O)c3c(Cl)cncc3Cl)CC2)n1 (mixture of isomers)
Completion: 14.6

Prompt: Which measured CC50 value corresponds to `CCO/N=C(/c1ccc(Br)cc1)C1CCN(CCCNC(=O)c2c(C)cc[n+]([O-])c2C)CC1` ?
Completion: 7.5

Prompt: What measured CC50 goes with CC(CCNC(=O)c1c(Cl)cncc1Cl)N1CCC(C2(c3ccc(C(F)(F)F)cc3)Cc3ccccc3O2)CC1 (stereo not given) ?
Completion: 33.8

Prompt: Report CC50 for CC(CCNC(=O)c1c(Cl)cncc1Cl)N1CCC(C(Oc2ccccn2)c2ccc(Br)cc2)CC1 (mixture of isomers) please.
Completion: 33.7

----------
- method-summary: Oral bioavailability in dog at 12.5 umol/kg
- Assay type: ADME, organism-based, Canis lupus familiaris
- settings: in vivo
measured-parameter: bioavailability (%)
Please respond with the number in % and leave the unit unwritten.

Prompt: Given the entry CC(CCNC(=O)c1c(Cl)cncc1Cl)N1CCC(C(Oc2cccc(Cl)n2)c2ccc(C(F)(F)F)cc2)CC1 (mixture of isomers) , report its measured bioavailability.
Completion: 6

----------
- system: C-C chemokine receptor type 5 (Homo sapiens, UniProt P51681)
- Sequence (P51681 whole entry): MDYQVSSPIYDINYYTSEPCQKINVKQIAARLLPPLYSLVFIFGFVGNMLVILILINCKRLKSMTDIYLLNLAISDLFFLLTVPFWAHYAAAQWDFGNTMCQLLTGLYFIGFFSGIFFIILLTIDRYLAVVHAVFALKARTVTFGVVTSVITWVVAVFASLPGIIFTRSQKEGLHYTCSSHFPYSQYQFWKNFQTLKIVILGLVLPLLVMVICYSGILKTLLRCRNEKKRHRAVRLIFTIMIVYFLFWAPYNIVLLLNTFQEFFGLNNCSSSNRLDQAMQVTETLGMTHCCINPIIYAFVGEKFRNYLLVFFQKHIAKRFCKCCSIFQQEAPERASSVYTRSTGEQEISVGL
- method-summary: Displacement of […] from CCR5 expressed in HEK293F cells
measured-parameter: pIC50
The quantity pIC50 is defined as the negative base-10 logarithm of the molar concentration.

CC(CCNC(=O)c1c(Cl)cncc1Cl)N1CCC(C2(c3ccc(C(F)(F)F)cc3)Cc3ccccc3O2)CC1 (stereo not drawn); 7.40
CCO/N=C(/c1ccc(Br)cc1)C1CCN(C(C)CCN(C)C(=O)c2c(C)cc[n+]([O-])c2C)CC1 (stereo not drawn); 5.25
CC(CCNC(=O)c1c(Cl)cncc1Cl)N1CCC(C(Oc2ccccn2)c2ccc(Br)cc2)CC1 (mixture of isomers); 6.85
CC(CCNC(=O)c1c(Cl)cncc1Cl)N1CCC(C(Oc2ccccc2)c2ccc(Br)cc2)CC1 (stereo not drawn); 6.89
CC(CCNC(=O)c1c(Cl)cncc1Cl)N1CCC(C(Oc2ccccc2Cl)c2ccc(C(F)(F)F)cc2)CC1 (mixture of isomers); 6.92

Prompt: Sample CC(CCNC(=O)c1c(Cl)cncc1Cl)N1CCC(C(Oc2cccc(C#N)n2)c2ccc(C(F)(F)F)cc2)CC1 (mixture of isomers) — what was its pIC50?
Completion: 7.40

Prompt: # query: pIC50 of entry CC(CCNC(=O)c1c(Cl)cncc1Cl)N1CCC(C2(c3ccc(C(F)(F)F)cc3)Oc3ccccc3O2)CC1 (stereo not drawn)
Completion: 7.52

Prompt: Could you tell me which pIC50 is on file for Cc1cccnc1OC(c1ccc(C(F)(F)F)cc1)C1CCN(C(C)CCNC(=O)c2c(Cl)cncc2Cl)CC1 (mixture of isomers) ?
Completion: 7.22

----------
- method-summary: Cytotoxicity against human PBMC
- Type: cell-based
CC50 overview
Field: numeric (µM). Do not append units.

Sample records with CC50:
CC(CCNC(=O)c1c(Cl)cncc1Cl)N1CCC(C2(c3ccc(C(F)(F)F)cc3)Oc3ccccc3O2)CC1 (centres undefined); 7.8
Cc1cccc(OC(c2ccc(Br)cc2)C2CCN(C(C)CCNC(=O)c3c(Cl)cncc3Cl)CC2)n1 (mixture of isomers); 6.5
CCO/N=C(/c1ccc(Br)cc1)C1CCN(C(C)CNC(=O)c2c(C)cc[n+]([O-])c2C)CC1 (centres undefined); 182

# evaluate next
Prompt: # input compound: Cc1ccnc(OC(c2ccc(C(F)(F)F)cc2)C2CCN(C(C)CCNC(=O)c3c(Cl)cncc3Cl)CC2)c1 (mixture of isomers) ; wanted: its CC50
Completion: 33.6

----------
- system: C-C chemokine receptor type 5 (Homo sapiens)
- method-summary: Displacement of […] from CCR5 expressed in HEK293F cells
pIC50: −log10 of the molar value.
Returns one of y or n; y when pIC50 is >= 7.

Some entries whose results are on file:
COC(=O)c1cccc(OC(c2ccc(C(F)(F)F)cc2)C2CCN(C(C)CCNC(=O)c3c(Cl)cncc3Cl)CC2)n1 (mixture of isomers); n
Cc1cccc(OC(c2ccc(Br)cc2)C2CCN(C(C)CCNC(=O)c3c(Cl)cncc3Cl)CC2)n1 (mixture of isomers); n

Prompt: Does the reported pIC50 for CC(CCNC(=O)c1c(Cl)cncc1Cl)N1CCC(C(Oc2ccccc2)c2ccc(C(F)(F)F)cc2)CC1 (mixture of isomers) fall at or above the 7 mark?
Completion: y

Prompt: Could you tell me if the measured pIC50 of CC(CCNC(=O)c1c(Cl)cncc1Cl)N1CCC(C(Oc2ccccn2)c2ccc(C(F)(F)F)cc2)CC1 (mixture of isomers) reaches 7 or more?
Completion: y

----------
- method-summary: Cytotoxicity against human PBMC
- Format: cell-based
measured-parameter: CC50 (µM)
The reply should contain only the number, in µM.

Study these solved cases before continuing.
CCO/N=C(/c1ccc(Br)cc1)C1CCN(C2(CCNC(=O)c3c(Cl)cncc3Cl)CC2)CC1; 33
CC(CCNC(=O)c1c(Cl)cncc1Cl)N1CCC(C(Oc2ncccc2Cl)c2ccc(C(F)(F)F)cc2)CC1 (mixture of isomers); 16.7
CC(CCNC(=O)c1c(Cl)cncc1Cl)N1CCC(N(Cc2ccccc2)c2ccc(Br)cc2)CC1 (stereo not given); 4.28
CC(CCNC(=O)c1c(Cl)cncc1Cl)N1CCC(C(Oc2ccccc2)c2ccc(C(F)(F)F)cc2)CC1 (mixture of isomers); 6.8

Prompt: Item CC(CCNC(=O)c1c(Cl)cncc1Cl)N1CCC(C(Oc2cccc(C#N)n2)c2ccc(C(F)(F)F)cc2)CC1 (mixture of isomers) has what recorded CC50?
Completion: 15.7

Prompt: Query (molecule): `CCO/N=C(/c1ccc(Br)cc1)C1CCN(C(C)(C)CCNC(=O)c2c(Cl)cncc2Cl)CC1` ; field requested: CC50
Completion: 34

Prompt: Find the recorded CC50 belonging to CC(CCNC(=O)c1c(Cl)cncc1Cl)N1CCC(C(Oc2cccc(C(F)(F)F)c2)c2ccc(C(F)(F)F)cc2)CC1 (mixture of isomers) and report it.
Completion: 7

Prompt: Tell me the measured CC50 of CC(CCNC(=O)c1c(Cl)cncc1Cl)N1CCC(C(Oc2ccccc2C#N)c2ccc(C(F)(F)F)cc2)CC1 (mixture of isomers) , please.
Completion: 17

Prompt: What does the record list as CC50 for Cc1ccnc(OC(c2ccc(Br)cc2)C2CCN(C(C)CCNC(=O)c3c(Cl)cncc3Cl)CC2)c1 (mixture of isomers) ?
Completion: 32.5

----------
- method-summary: AUC (0 to infinity) in rat
- Assay type: ADME, organism-based
- Parameters: time infinity
- settings: plasma
measured-parameter: AUC(0-inf) (µM·h)
API: value field is a number in µM·h; no unit string.

Prompt: Fill blank: measured AUC(0-inf) of the molecule CC(CCNC(=O)c1c(Cl)cncc1Cl)N1CCC(C(Oc2cccc(Cl)n2)c2ccc(C(F)(F)F)cc2)CC1 (mixture of isomers) is ____.
Completion: 2.4

Prompt: Given the molecule `CCO/N=C(/c1ccc(Br)cc1)C1CCN(C2(C)CCN(C(=O)c3c(C)cc[n+]([O-])c3C)CC2)CC1` , what is its reported AUC(0-inf)?
Completion: 4.3

----------
- method-summary: Oral bioavailability in rat at 100 umol/kg
- Assay type: ADME, organism-based
- settings: in vivo
measured-parameter: bioavailability (%)
Unit % implied. Number only.

CCO/N=C(/c1ccc(Br)cc1)C1CCN(C2(C)CCN(C(=O)c3c(C)cc[n+]([O-])c3C)CC2)CC1 [SCHERING C]; 48

Now take the following molecule into account.
Prompt: Consider the molecule CC(CCNC(=O)c1c(Cl)cncc1Cl)N1CCC(C(Oc2cccc(Cl)n2)c2ccc(C(F)(F)F)cc2)CC1 (mixture of isomers) and give its measured bioavailability.
Completion: 20
